System under test: VEGF (vascular endothelial growth factor) (UniProt P15692-4 27-191, limits assumed, biotin label (Example 5))
Sequence (P15692 other isoform, or with tags, fused parts or gaps limits assumed): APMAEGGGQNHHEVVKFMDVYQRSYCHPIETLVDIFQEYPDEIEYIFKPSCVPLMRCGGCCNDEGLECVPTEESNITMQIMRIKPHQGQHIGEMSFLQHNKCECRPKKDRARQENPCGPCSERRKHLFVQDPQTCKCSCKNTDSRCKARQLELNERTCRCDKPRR
Assay overview: BioVeris ECL competition assay with a labeled competitor; legend: ++ = IC50 about 10 - 50 µM
pIC50: −log10 of the molar value.
Parameter measured: pIC50

Reported pIC50 for BBIt-AV-V1 (BBIt-VEGF-V1-A13I-S25R-M27A-L29P-S31A-F50K-V52T, peptide SKHSQIT) (designed binder) DPDDESSKPCCDQCICTKSNPPQCRCRDARPNACHSACKSCACSKHSQITCKCTDITDFCYEPCKPSE : what is it? 4.30 to 5.00

Reported pIC50 for BBIt-AV-V3 (BBIt-VEGF-V3-A13I-S25R-M27A-L29P-S31A-F50K-V52T, peptide RPTGHSL) (designed binder) DPDDESSKPCCDQCICTKSNPPQCRCRDARPNACHSACKSCACRPTGHSLCKCTDITDFCYEPCKPSE : what is it? 4.30 to 5.00

Reported pIC50 for BBIt-AV-V5 (BBIt-VEGF-V5-A13I-S25R-M27A-L29P-S31A-F50K-V52T, peptide KPSSASS) (designed binder) DPDDESSKPCCDQCICTKSNPPQCRCRDARPNACHSACKSCACKPSSASSCKCTDITDFCYEPCKPSE : what is it? 4.30 to 5.00
